From: paper PMC10962542

molecular target: N‐Myc/Aurora‐A interaction (Aurora‐A122‐403‐C290A/C393A) (Homo sapiens, UniProt O14965, C290A/C393A); construct: Aurora‐A 122‐403‐C290A/C393A protein was produced as described previously; made in house; assay: competition fluorescence anisotropy (FA) assay against fluorescein labelled N‐Myc61‐89; type: binding; conditions: SD; further: equilibrated 2 h at room temperature
Sequence (O14965 122-403 C290A/C393A): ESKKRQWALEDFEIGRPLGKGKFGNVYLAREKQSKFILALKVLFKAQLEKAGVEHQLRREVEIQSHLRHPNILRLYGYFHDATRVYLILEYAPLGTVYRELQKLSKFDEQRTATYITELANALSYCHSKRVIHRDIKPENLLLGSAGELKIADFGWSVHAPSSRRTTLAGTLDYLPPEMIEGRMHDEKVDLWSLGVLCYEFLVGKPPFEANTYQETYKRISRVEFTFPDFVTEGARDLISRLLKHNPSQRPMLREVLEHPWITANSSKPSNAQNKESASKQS
Please respond with reported IC50 for every item in the list.
Answers are plain numbers, in µM.

Ac-SWVTEMLLENELWG-NH2 [N‐Myc76‐89] :: 215

Okay, now this substance:
For reference, reported IC50 for Ac-EPPSWVTEMLLENELWGSPAEEDAF-NH2 [N‐Myc73‐97] stands at 79
